# assayTarget: Fatty-acid amide hydrolase 1 (Homo sapiens, UniProt O00519)
# Sequence (O00519 whole entry): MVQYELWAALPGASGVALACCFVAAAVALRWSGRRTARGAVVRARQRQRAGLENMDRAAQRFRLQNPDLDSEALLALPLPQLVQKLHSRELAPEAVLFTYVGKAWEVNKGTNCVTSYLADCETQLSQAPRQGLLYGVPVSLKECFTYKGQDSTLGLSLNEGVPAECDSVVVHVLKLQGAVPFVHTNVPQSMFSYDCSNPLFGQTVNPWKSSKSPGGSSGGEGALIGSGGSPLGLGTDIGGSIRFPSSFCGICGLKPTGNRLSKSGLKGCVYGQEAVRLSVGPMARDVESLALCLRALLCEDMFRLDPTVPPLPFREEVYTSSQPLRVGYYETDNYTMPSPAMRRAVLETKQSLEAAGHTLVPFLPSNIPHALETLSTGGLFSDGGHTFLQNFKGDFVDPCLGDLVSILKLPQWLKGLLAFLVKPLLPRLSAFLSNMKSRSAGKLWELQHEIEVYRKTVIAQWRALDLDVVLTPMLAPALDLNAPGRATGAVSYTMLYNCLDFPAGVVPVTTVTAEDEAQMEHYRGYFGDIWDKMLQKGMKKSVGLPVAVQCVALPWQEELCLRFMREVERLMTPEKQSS
# experimentalDetails: Inhibition of human recombinant FAAH using AMC arachidonoyl amide as substrate after 30 mins by fluorescence assay
Field: pIC50. Provide a value for each of the compounds that follow.
Numbers only, as −log10 of the molar value.

CCOC(=O)c1cc(-c2cccc(OC(=O)NC3CCCCC3)c2)n(-c2ccc(C(F)(F)F)cc2)n1 : 6.88
NC(=O)c1cc(-c2cccc(OC(=O)NC3CCCCC3)c2)n(-c2ccc(Cl)cc2)n1 : 6.76
CCOC(=O)c1cc(-c2cccc(OC(=O)NC3CCCCC3)c2)n(-c2ccccc2)n1 : 7.96
CCOC(=O)c1cc(-c2cccc(OC(=O)NC3CCCCC3)c2)nn1C : 6.64
NC(=O)c1cc(-c2ccc(OC(=O)NC3CCCCC3)cc2)n(-c2ccccc2)n1 : 7.15

For every item below, please supply its pIC50.
1. CCOC(=O)c1cc(-c2cccc(OC(=O)NC3CCCCC3)c2)n(-c2ccc(Cl)cc2)n1
2. CCOC(=O)c1cc(-c2cccc(OC(=O)NC3CCCCC3)c2)n(Cc2ccccc2)n1

1: 7.77; 2: 7.15

* * *

# assayTarget: Fatty-acid amide hydrolase 1 (Homo sapiens)
# experimentalDetails: Inhibition of human recombinant FAAH using AMC arachidonoyl amide as substrate preincubated with protein for 30 mins followed by substrate addition by fluorescence assay
Field: IC50. Provide a value for each of the compounds that follow.
Give bare numbers, in nM.

CCOC(=O)c1cc(-c2cccc(OC(=O)NC3CCCCC3)c2)n(-c2ccc(Cl)cc2)n1 : 17

Name the recorded IC50 for COc1nn(-c2ccc(NC(=O)OCc3ccccc3)c(C)c2)c(=O)o1 .
3.5

* * *

Field: pIC50. Provide a value for each of the compounds that follow.
# assayTarget: Fatty-acid amide hydrolase 1 (Homo sapiens)
# experimentalDetails: Inhibition of human recombinant FAAH using AMC arachidonoyl amide as substrate preincubated with protein for 0 min followed by substrate addition by fluorescence assay
One number for each entry, as −log10 of the molar value.

CCOC(=O)c1cc(-c2cccc(OC(=O)NC3CCCCC3)c2)n(-c2ccc(Cl)cc2)n1 : 7.82

Here is the next item to consider.
Name the recorded pIC50 for COc1nn(-c2ccc(NC(=O)OCc3ccccc3)c(C)c2)c(=O)o1 .
7.89

* * *

# assayTarget: Fatty-acid amide hydrolase 1 (Homo sapiens, UniProt O00519)
# experimentalDetails: Inhibition of human recombinant FAAH using AMC arachidonoyl amide as substrate after 30 mins by fluorescence assay
quantityKind: IC50 (nM)
Answers are plain numbers, in nM.

Recorded IC50, per entry:
CCOC(=O)c1cc(-c2cccc(OC(=O)NC3CCCCC3)c2)n(-c2ccc([N+](=O)[O-])cc2)n1 : 78
O=C(NC1CCCCC1)Oc1cccc(-c2cc(CO)nn2-c2ccccc2)c1 : 462
CCOC(=O)c1cc(-c2cccc(OC(=O)NC3CCCCC3)c2)n(-c2ccc(OC)cc2)n1 : 103
O=C(NC1CCCCC1)Oc1cccc(-c2cc(C(=O)NC3CCCCC3)nn2-c2ccccc2)c1 : 288
CCOC(=O)c1cc(-c2cccc(OC(=O)NC3CCCCC3)c2)n(C)n1 : 303

For every item below, please supply its IC50.
1. CCOC(=O)c1cc(-c2cccc(OC(=O)NC3CCCCC3)c2)n(-c2ccc(C)cc2)n1
2. CCOC(=O)c1cc(-c2cccc(OC(=O)NC3CCCCC3)c2)nn1-c1ccc(Cl)cc1
3. CCOC(=O)c1cc(-c2ccc(OC(=O)NC3CCCCC3)cc2)nn1-c1ccc(OC)cc1
4. COc1nn(-c2ccc(NC(=O)OCc3ccccc3)c(C)c2)c(=O)o1
5. CCOC(=O)c1cc(-c2cccc(OC(=O)NC3CCCCC3)c2)nn1-c1ccc(OC)cc1
6. CCCOC(=O)c1cc(-c2cccc(OC(=O)NC3CCCCC3)c2)n(-c2ccccc2)n1
7. CCOC(=O)c1cc(-c2ccc(OC(=O)NC3CCCCC3)cc2)nn1C

1: 29; 2: 353; 3: 159; 4: 14; 5: 407; 6: 27; 7: 316

For every item below, please supply its IC50.
1. CCOC(=O)c1cc(-c2ccc(OC(=O)NC3CCCCC3)cc2)n(C)n1
2. CCOC(=O)c1cc(-c2ccc(OC(=O)NC3CCCCC3)cc2)nn1-c1ccc(Cl)cc1
3. CCOC(=O)c1cc(-c2cccc(OC(=O)NC3CCCCC3)c2)n(CC)n1
4. CC(C)NC(=O)c1cc(-c2cccc(OC(=O)NC3CCCCC3)c2)n(-c2ccccc2)n1
5. CCOC(=O)c1cc(-c2ccc(OC(=O)NC3CCCCC3)cc2)n(-c2ccccc2)n1
6. NC(=O)c1cc(-c2cccc(OC(=O)NC3CCCCC3)c2)n(-c2ccccc2)n1

81
586
101
232
268
169

For every item below, please supply its IC50.
1. CCOC(=O)c1cc(-c2cccc(OC(=O)NC3CCCCC3)c2)nn1CC
2. CCOC(=O)c1cc(-c2cccc(OC(=O)NC3CCCCC3)c2)n(-c2ccc(Cl)cc2Cl)n1

[507, 123]

* * *

# assayTarget: Fatty-acid amide hydrolase 1 (Homo sapiens, UniProt O00519)
# experimentalDetails: Inhibition of human recombinant FAAH using AMC arachidonoyl amide as substrate after 30 mins by fluorescence assay
Field: IC50. Provide a value for each of the compounds that follow.
Give bare numbers, in nM.

CCOC(=O)c1cc(-c2cccc(OC(=O)NC3CCCCC3)c2)nn1-c1ccccc1 : 539

For every item below, please supply its IC50.
1. Cn1nc(C(N)=O)cc1-c1ccc(OC(=O)NC2CCCCC2)cc1
2. O=C(NC1CCCCC1)Oc1cccc(-c2cc(C(=O)O)nn2-c2ccccc2)c1
3. CCN(CC)C(=O)c1cc(-c2cccc(OC(=O)NC3CCCCC3)c2)n(-c2ccccc2)n1
4. CCOC(=O)c1cc(-c2ccc(OC(=O)NC3CCCCC3)cc2)nn1CC
5. CCCCCCNC(=O)Oc1cccc(-c2cc(C(=O)OCCC)nn2-c2ccccc2)c1
6. CCOC(=O)c1cc(-c2ccc(OC(=O)NC3CCCCC3)cc2)n(-c2ccc(Cl)cc2)n1

209
2270
448
603
101
281

For every item below, please supply its IC50.
1. CCOC(=O)c1cc(-c2ccc(OC(=O)NC3CCCCC3)cc2)n(CC)n1
2. COC(=O)c1cc(-c2cccc(OC(=O)NC3CCCCC3)c2)n(-c2ccccc2)n1
3. NC(=O)c1cc(-c2ccc(OC(=O)NC3CCCCC3)cc2)n(-c2ccc(Cl)cc2)n1

1: 214; 2: 18; 3: 172

For every item below, please supply its IC50.
1. COc1ccc(-n2nc(C(N)=O)cc2-c2cccc(OC(=O)NC3CCCCC3)c2)cc1
2. CCOC(=O)c1cc(-c2ccc(OC(=O)NC3CCCCC3)cc2)nn1-c1ccccc1
3. CCCCCCNC(=O)Oc1cccc(-c2cc(C(=O)OCC)nn2-c2ccccc2)c1

[743, 592, 88]
